# TEST SYSTEM: B-Hex (β-hexosaminidase, Hex A/B)
# EXPERIMENT SUMMARY: Comparative selectivity of pharmacological chaperones: B-Hex inhibition
# MEASUREMENT CONDITIONS: marked **: Values reported as Ki's; read-out: IC50 B-Hex, values reported as Ki's
pKi: −log10 of the molar value.

{"columns": ["COMPOUND", "pKi"],
 "data": [
  ["CC(=O)N[C@H]1CN[C@H](CO)[C@@H](O)[C@@H]1O [AdDNJ, 2-acetamido-1,2-dideoxynojirimycin]", 6.15]
]}
